Target under test: T1, HuMER (R26-A499) (human, UniProt Q12866 26-499)
T1 construct: Extracellular domain with both Ig-like and both fibronectin-like domains; also called human MerTK extracellular domain
T1 sequence: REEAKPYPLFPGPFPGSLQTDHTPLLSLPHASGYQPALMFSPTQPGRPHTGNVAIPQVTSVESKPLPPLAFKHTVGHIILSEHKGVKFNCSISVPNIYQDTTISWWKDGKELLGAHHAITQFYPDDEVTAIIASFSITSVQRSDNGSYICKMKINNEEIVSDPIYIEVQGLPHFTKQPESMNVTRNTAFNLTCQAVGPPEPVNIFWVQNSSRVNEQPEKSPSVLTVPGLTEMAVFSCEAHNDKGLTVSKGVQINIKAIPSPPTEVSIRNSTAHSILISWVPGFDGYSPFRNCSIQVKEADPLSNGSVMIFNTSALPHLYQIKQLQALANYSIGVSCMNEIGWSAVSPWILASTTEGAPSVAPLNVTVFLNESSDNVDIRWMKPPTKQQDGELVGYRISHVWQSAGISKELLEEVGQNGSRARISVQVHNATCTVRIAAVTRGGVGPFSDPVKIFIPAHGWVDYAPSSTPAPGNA
Method: SPR BIAcore T200, Ab captured, 25C

Binder	Kd
Rbt22C4 (antibody, V domains shown, Recombinant rabbit monoclonal antibody, Expi293, protein A purified) VH: QSVEESGGRLVTPGTPLTLTCTVSGFSLSTYSMSWVRQAPGKGLEWLGIVSVAIDPVYATWARGRFTISRTSTTVNLKITSPTTEDTATYFCVRVAFSTNGIPHRLDLWGQGTLVTVSS VL: AQVLTQTASSVSAAVGGTVTISCQSSPSVYNHNWLSWYQQKPGQPPKLLIYEASKLASGVPSRFSGSGSGTQFTLTISDVQCDEAATYYCAGGFSSGSDSFAFGGGTEVVVT	94 nM
Rbt8F4 (antibody, V domains shown, Recombinant rabbit monoclonal antibody, Expi293, protein A purified) VH: QSVQESGGRLVTPGTPLTLTCTVSGFSLINYPMSWVRQAPGKGLEWIGVISSTGGTNYASWAKGRFTISKTSTTVDLKITSPTTEDTATYFCARVDFLVYLGGAYIIWGLDLWGQGTLVTVSS VL: AAVLTQTPSPVSAAVGGTVTINCQSSPNIYSNYLSWFQQKPGQPPKILIYGASTLASGVPSRFKGSGSGTQFTLTISDVQCDDAATYYCAGGYSDSSEAYAFGGGTEVVVK	44 nM
Rbt10F7 (antibody, V domains shown, Recombinant rabbit monoclonal antibody, Expi293, protein A purified) VH: QSVEESGGRLVTPGTPLTLTCTVSGFSLSGYAMSWVRQAPGKGLEYIGVISSSGSSYYPSWAKGRFTISKTSTTVDLQITSPTTEDTATYFCARVQFYVGYAVYGYGIIDRLDLWGQGTLVTVSS VL: AAVLTQTPSPVSATMGGTVSISCQSSKSVYNNNWLSWYQQKPGQPPKLLIYRASTLESGVPSRFKGSGSGTQFTLTISDVHCDDAATYFCAGGYSSSSSANAFGGGTEVVVK	7 nM
